Values from paper PMC6150275

Biological target: hIDO1 (Homo sapiens)
Construct: purchased BPS Bioscience (San Diego, CA, USA)
Sequence (P14902 whole entry): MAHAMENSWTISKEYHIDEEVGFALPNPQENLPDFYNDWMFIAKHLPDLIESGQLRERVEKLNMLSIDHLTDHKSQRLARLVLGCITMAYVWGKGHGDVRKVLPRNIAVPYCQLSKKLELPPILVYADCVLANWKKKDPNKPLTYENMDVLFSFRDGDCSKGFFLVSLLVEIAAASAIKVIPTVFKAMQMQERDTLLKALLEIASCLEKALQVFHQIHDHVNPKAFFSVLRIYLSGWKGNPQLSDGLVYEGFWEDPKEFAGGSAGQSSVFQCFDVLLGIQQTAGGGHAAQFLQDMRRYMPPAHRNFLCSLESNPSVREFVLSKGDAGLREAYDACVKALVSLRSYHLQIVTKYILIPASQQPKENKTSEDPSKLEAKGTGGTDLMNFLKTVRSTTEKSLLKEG
Assay: hIDO1 enzymatic assay (BPS Bioscience IDO1 inhibitor screening assay kit)
Format: biochemical
Details: 20 µM compound, enzymatic assay
measured.metric: inhibition at 20 µM (%)
The answer is to be given in %; state only the numeric part.

Request: Tell me the measured inhibition at 20 µM of O/N=C(\Nc1ccc(F)c(Br)c1)c1cccc2cn[nH]c12 [Compound 8a] , please.
Response: 81

Request: Tell me the measured inhibition at 20 µM of O/N=C(\Nc1cccc(Cl)c1)c1cccc2cn[nH]c12 [Compound 8c] , please.
Response: 77

Request: Tell me the measured inhibition at 20 µM of Cn1ncc2cccc(/C(=N/O)Nc3ccc(F)c(Br)c3)c21 [Compound 12] , please.
Response: 15

Request: Tell me the measured inhibition at 20 µM of O/N=C(\Nc1ccc(F)c(Cl)c1)c1cccc2cn[nH]c12 [Compound 8b] , please.
Response: 79
